Recorded pEC50 by entry
Biological target: human mGlu4 receptor (Homo sapiens (Human))
Sequence (Q14833 33-912): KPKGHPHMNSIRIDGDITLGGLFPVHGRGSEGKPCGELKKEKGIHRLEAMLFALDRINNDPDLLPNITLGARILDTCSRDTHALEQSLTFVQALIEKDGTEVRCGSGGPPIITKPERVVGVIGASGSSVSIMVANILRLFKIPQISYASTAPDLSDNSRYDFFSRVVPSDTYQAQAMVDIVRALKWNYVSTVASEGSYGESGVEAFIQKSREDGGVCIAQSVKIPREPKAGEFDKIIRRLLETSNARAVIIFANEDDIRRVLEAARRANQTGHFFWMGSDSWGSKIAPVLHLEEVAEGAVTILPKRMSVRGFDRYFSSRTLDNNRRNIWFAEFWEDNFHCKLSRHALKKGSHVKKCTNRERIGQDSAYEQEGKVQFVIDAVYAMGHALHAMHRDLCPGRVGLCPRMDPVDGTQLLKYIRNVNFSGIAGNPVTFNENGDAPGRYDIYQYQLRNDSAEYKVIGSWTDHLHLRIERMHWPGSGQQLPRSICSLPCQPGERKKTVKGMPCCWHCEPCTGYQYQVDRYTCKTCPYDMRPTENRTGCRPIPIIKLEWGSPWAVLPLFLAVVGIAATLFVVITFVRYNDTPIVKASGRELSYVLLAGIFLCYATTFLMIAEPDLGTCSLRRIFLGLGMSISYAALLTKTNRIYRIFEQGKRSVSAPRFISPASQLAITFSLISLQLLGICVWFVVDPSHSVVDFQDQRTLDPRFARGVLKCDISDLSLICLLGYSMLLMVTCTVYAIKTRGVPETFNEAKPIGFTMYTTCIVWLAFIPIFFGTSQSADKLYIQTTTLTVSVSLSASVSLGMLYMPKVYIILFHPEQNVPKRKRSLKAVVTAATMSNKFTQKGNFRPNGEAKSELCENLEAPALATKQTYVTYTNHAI
Experiment: Intracellular Ca2+ mobilization assay (FLIPR), mGlu4 NAM
Conditions: HEK-293 cells stably transfected with human mGlu4; inhibition of L-AP4 (EC80) response; IC50
Remember the convention: pEC50 equals -log10 of concentration in molar.

Check the records and state pEC50 for CC(C)(C)c1cnn(-c2cc(F)c(NS(=O)(=O)c3ccccc3Cl)c(F)c2)c1
4.88

Check the records and state pEC50 for O=S(=O)(Nc1c(F)cc(C#Cc2ccccc2)cc1F)c1cccc(C(F)(F)F)c1Cl
5.68

Check the records and state pEC50 for COc1cccc(C#Cc2cc(F)c(NS(=O)(=O)c3cccc(Cl)c3C)c(F)c2)c1
5.88

Check the records and state pEC50 for O=S(=O)(Nc1c(F)cc(C#Cc2cccnc2)cc1F)c1ccccc1Cl
4.85

Check the records and state pEC50 for O=S(=O)(Nc1c(F)cc(C#Cc2ccccc2)cc1F)c1cc(Cl)ccc1Cl
5.47

Check the records and state pEC50 for O=S(=O)(Nc1c(F)cc(C#Cc2ccccc2)cc1F)c1cccc(F)c1Cl
6.13
